system.under.test: Thioesterase GrsT homolog tycF (Brevibacillus brevis) (UniProt O30412)
Sequence (O30412 as listed by the source): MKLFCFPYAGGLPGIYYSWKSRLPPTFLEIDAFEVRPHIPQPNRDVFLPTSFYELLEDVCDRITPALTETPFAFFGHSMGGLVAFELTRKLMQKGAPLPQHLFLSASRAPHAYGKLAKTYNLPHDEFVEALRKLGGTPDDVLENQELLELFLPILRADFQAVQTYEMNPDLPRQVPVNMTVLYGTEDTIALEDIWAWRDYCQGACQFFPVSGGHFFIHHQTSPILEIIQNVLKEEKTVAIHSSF
assay.text: Apparent kinetic constant (Kcat) for tyrocidine thioesterase amplified from Bacillus brevis (ATCC8185)
measurement.kind: k cat (s⁻¹)
Respond with the bare value in s⁻¹.

Example compounds with recorded k cat:
test.smiles: CC(=O)NCCSC(=O)[C@H](CC(C)C)NC(=O)[C@H](CCCN)NC(=O)[C@H](CC(N)=O)NC(=O)[C@H](Cc1ccc(O)cc1)NC(=O)[C@H](CCC(N)=O)NC(=O)[C@H](CC(N)=O)NC(=O)[C@@H](Cc1ccccc1)NC(=O)[C@H](Cc1ccccc1)NC(=O)[C@@H]1CCCN1C(=O)[C@H](N)Cc1ccccc1
system.under.test: Thioesterase GrsT homolog tycF (Brevibacillus brevis) (UniProt O30412)
measurement.kind: k cat
quantitative.readout: 0.2
--
test.smiles: CC(=O)NCCSC(=O)[C@H](CC(C)C)NC(=O)[C@H](CCCN)NC(=O)[C@H](CCC(N)=O)NC(=O)[C@H](Cc1ccc(O)cc1)NC(=O)[C@H](CCC(N)=O)NC(=O)[C@H](CC(N)=O)NC(=O)[C@@H](Cc1ccccc1)NC(=O)[C@H](Cc1ccccc1)NC(=O)[C@@H]1CCCN1C(=O)[C@H](N)Cc1ccccc1
system.under.test: Thioesterase GrsT homolog tycF (Brevibacillus brevis) (UniProt O30412)
measurement.kind: k cat
quantitative.readout: 0.233
--
test.smiles: CC(=O)NCCSC(=O)[C@H](CC(C)C)NC(=O)[C@H](CCCN)NC(=O)[C@@H](NC(=O)[C@H](Cc1ccc(O)cc1)NC(=O)[C@H](CCC(N)=O)NC(=O)[C@H](CC(N)=O)NC(=O)[C@H](CS)NC(=O)[C@H](Cc1ccccc1)NC(=O)[C@@H]1CCCN1C(=O)[C@H](N)Cc1ccccc1)C(C)C
system.under.test: Thioesterase GrsT homolog tycF (Brevibacillus brevis) (UniProt O30412)
measurement.kind: k cat
quantitative.readout: 0.11

Qu. Thioesterase GrsT homolog tycF (Brevibacillus brevis) (UniProt O30412) / k cat / CC(=O)NCCSC(=O)[C@H](CC(C)C)NC(=O)[C@H](CCCN)NC(=O)[C@@H](NC(=O)[C@H](Cc1ccc(O)cc1)NC(=O)[C@H](CCC(N)=O)NC(=O)[C@H](CC(N)=O)NC(=O)[C@@H](NC(=O)[C@H](Cc1ccccc1)NC(=O)[C@@H]1CCCN1C(=O)[C@H](N)Cc1ccccc1)[C@@H](C)O)C(C)C : value?
Ans. 0.135

----------
Consider the following molecules and their measured Ratio readings.
system.under.test: Thioesterase GrsT homolog tycF (Brevibacillus brevis)
assay.text: Catalytic efficiency (Kcat/Km) was determined
Parameters: unit not given here
Where a SMILES comes first, the peptide text is derived from it. [ ]: non-standard residue; d: D form. The star is where a group is joined. SCH2CH2NHAc = CC(=O)NCCS*; Orn = NCCC[C@H](N)C(=O)O
Simply state the number, no unit and no words.

molecule: CC(=O)NCCSC(=O)[C@H](CC(C)C)NC(=O)[C@H](CCCN)NC(=O)[C@@H](NC(=O)[C@H](Cc1ccc(O)cc1)NC(=O)[C@H](CCC(N)=O)NC(=O)[C@H](CC(N)=O)NC(=O)[C@@H](Cc1ccccc1)NC(=O)[C@H](Cc1ccccc1)NC(=O)[C@H](C)NC(=O)[C@H](N)Cc1ccccc1)C(C)C (H-[dF]AF[dF]NQYV[Orn]L-SCH2CH2NHAc)
Ratio: 0.23

Shifting focus to the molecule that follows.
Qu. Request body: readout Ratio, system Thioesterase GrsT homolog tycF (Brevibacillus brevis), query CC(=O)NCCSC(=O)[C@H](CC(C)C)NC(=O)[C@H](CCCN)NC(=O)[C@@H](NC(=O)[C@H](Cc1ccc(O)cc1)NC(=O)[C@H](CCC(N)=O)NC(=O)[C@H](CC(N)=O)NC(=O)[C@H](Cc1c[nH]c2ccccc12)NC(=O)[C@H](Cc1ccccc1)NC(=O)[C@@H]1CCCN1C(=O)[C@H](N)Cc1ccccc1)C(C)C . Return the value.
Ans. 0.95
